Every entry's value here was drawn from ChEMBL document CHEMBL3414494.

Collected pIC50 values appear next to each entry.
test system: A549; assay: Cytotoxicity against human A549 cells assessed as growth inhibition after 72 hrs by MTT assay; type: functional, cell-based; settings: A549, 72 h
# log scale: pIC50 equals minus log10 of the concentration in mol/L

Example entries begin here.
| givenSmiles | testedOn | pIC50 |
| --- | --- | --- |
| COc1cc2c(c(OC)c1OC)-c1ccc(OC)c(=O)cc1[C@@H](NC(=O)c1ccc(C(=O)Nc3ccccc3N)cc1)CC2 | A549 | 5.79 |
| COc1cc2c(c(OC)c1OC)-c1ccc(OC)c(=O)cc1[C@@H](NC(=O)c1ccc(C(=O)Nc3cc(-c4cccs4)ccc3N)cc1)CC2 | A549 | 6.13 |
| Nc1ccccc1NC(=O)c1ccc(CNc2nccc(-c3cccnc3)n2)cc1 | A549 | 5.68 |
| COc1cc2c(c(OC)c1OC)-c1ccc(OC)c(=O)cc1[C@@H](NC(=O)c1cccc(C(=O)Nc3cc(-c4cccs4)ccc3N)c1)CC2 | A549 | 5.55 |
| COc1cc2c(c(OC)c1OC)-c1ccc(OC)c(=O)cc1[C@@H](NCc1ccc(C(=O)Nc3ccccc3N)cc1)CC2 | A549 | 6.97 |
| COc1cc2c(c(OC)c1OC)-c1ccc(OC)c(=O)cc1[C@@H](NC(C)=O)CC2 | A549 | 6.98 |

For the molecule shown here, COc1cc2c(c(OC)c1OC)-c1ccc(OC)c(=O)cc1[C@@H](NC(=O)c1cccc(C(=O)Nc3ccccc3N)c1)CC2 , give the reported pIC50.
5.46

What would you report for COc1cc2c(c(OC)c1OC)-c1ccc(OC)c(=O)cc1[C@@H](NCc1cccc(C(=O)Nc3cc(-c4cccs4)ccc3N)c1)CC2 ?
6.41

What would you report for COc1cc2c(c(OC)c1OC)-c1ccc(OC)c(=O)cc1[C@@H](NCc1cccc(C(=O)Nc3ccccc3N)c1)CC2 ?
6.45

What would you report for COc1cc2c(c(OC)c1OC)-c1ccc(OC)c(=O)cc1[C@@H](NCc1ccc(C(=O)Nc3cc(-c4cccs4)ccc3N)cc1)CC2 ?
5.98
